# assay_info: qHTS for Inhibitors of human tyrosyl-DNA phosphodiesterase 1 (TDP1): qHTS in cells in absence of CPT; also: nearly all actives have a fitted effect of over 55% in size
# measurement_context: DT40 Tdp1-/- hTDP1 cells, no CPT, ATP luminescence, 48 h
Out of some 420,000 compounds screened, about 64,000 (15%) were called active. About 27% were inconclusive and are not listed. Calls follow the shape of the dose curve; as a rule, active = well fitted inhibition curve with a large enough effect; inconclusive = small, poorly fitted or top-dose-only effect; inactive = flat fitted curve, though single readings scatter. Only a sample is shown.
Hello, when you answer, please use one of the following outcomes: TRUE (active), FALSE (inactive)

Called result for `Cc1ccc(N2NC(=O)/C(=C/C=C/c3ccco3)C2=O)cc1C`
FALSE

Called result for `N[C@@H](Cc1ccccc1)C(=O)N1CCC(C(=O)NCC(=O)Nc2ccc(F)cc2)CC1`
FALSE

Called result for `O=C(CN1C2=NCCN2c2ccccc21)c1cccs1`
FALSE

Called result for `COc1ccccc1/C=C/C(=O)NC(=S)N1CCOCC1`
FALSE

Called result for Cc1cc(C)c(C#N)c(SCC(=O)N(CC(C)C)C2CCS(=O)(=O)C2)n1 (stereo not given)
FALSE

Called result for `O=C(Nc1cccc(F)c1)c1cc(-c2ccco2)nc2ccccc12`
FALSE

Called result for CCC(C(=O)Nc1ccc2c(c1)OCCO2)c1ccccc1 (stereo not given)
FALSE

Called result for CCC(C(=O)Nc1cccc(-c2nc3cccnc3s2)c1C)c1ccccc1 (stereo not given)
TRUE

Called result for `O=C1CCc2cc(S(=O)(=O)N3CCC(C(=O)NCc4ccccc4Cl)CC3)ccc2N1`
FALSE

Called result for `O=C(COc1ccc(/C=N/NC(=O)c2ccc(O)cc2)cc1)Nc1ccc([N+](=O)[O-])cc1`
FALSE

====

# assay_info: qHTS for Inhibitors of human tyrosyl-DNA phosphodiesterase 1 (TDP1): qHTS in cells in absence of CPT; also: nearly all actives have a fitted effect of over 55% in size
# measurement_context: DT40 Tdp1-/- hTDP1 cells, no CPT, ATP luminescence, 48 h
The whole screen tested about 420,000 compounds, of which about 64,000 (15%) were called active. Not shown: some 27% with an inconclusive outcome. Calls come from the whole dose curve; as a rule, active = well fitted inhibition curve with a large enough effect; inconclusive = small, poorly fitted or top-dose-only effect; inactive = flat fitted curve, though single readings scatter. Not all results are given here.
Hello, when you answer, please use one of the following outcomes: Yes (active), No (inactive)

Before answering, review these 10 worked examples.
- molecule: "Cc1cccc(NC(=O)CN2C(=O)CNC2=O)c1"
  group_label: "No"
- molecule: "CCn1cc(C(=O)NCC(=O)NC(C)(C)CO)c(=O)c2cc3c(cc21)OCO3"
  group_label: "No"
- molecule: "CC(=O)OCC(C)n1c(=O)c2ccccc2n1C(C)=O (stereo not given)"
  group_label: "No"
- molecule: "COc1ccc(NC2CCCN(C(=O)c3ccccc3-c3ncc[nH]3)C2)cc1 (stereo not given)"
  group_label: "No"
- molecule: "COc1ccccc1CNC(=O)COn1nnc2ccc(S(=O)(=O)N3CCOCC3)cc21"
  group_label: "No"
- molecule: "Cc1ccc(C)n1-c1ccncc1"
  group_label: "No"
- molecule: "Cn1c(=O)c(=O)n(C)c2cc(S(=O)(=O)CCC(=O)N3CCCCC3)ccc21"
  group_label: "No"
- molecule: "COc1cc(/C=C2/C(=O)NN(c3ccc(F)cc3)C2=O)cc([N+](=O)[O-])c1O"
  group_label: "No"
- molecule: "O=C(NCCc1cccc(F)c1)C1CCCN(c2nc3ccccc3s2)C1 (stereo not given)"
  group_label: "Yes"
- molecule: "C=CCn1c(N)cc(=O)nc1SCC(=O)Nc1cccc2ccccc12"
  group_label: "No"

Called result for `Cc1ncc2c(c1CNS(=O)(=O)N(C)C)CCN(C(=O)c1ccccc1F)C2`
No

Called result for `CCOC(=O)c1c(NC(=O)c2ccc(Br)o2)sc2c1CCCC2`
No

Called result for `COc1ccc(NC(=O)Cn2nnc(C(=O)NCCc3ccc(OC)c(OC)c3)c2N)cc1`
No

Called result for `O=C(CN1C(=O)CCn2nc(-c3ccccc3)cc21)NCc1ccccc1`
No

Called result for `C=CCn1c(SCC(=O)/C(C#N)=C(\C)N)nc2sc(C)c(C)c2c1=O`
No
